pKi for 5-hydroxytryptamine receptor 1A (Homo sapiens, UniProt P08908) - collated from the literature.
pKi: −log10 of the molar value.
measurement_type: pKi

In the examples that follow, each entry is paired with its recorded pKi.
* CC(C)c1ccccc1N1CCN(CCCCCCC(=O)N2Cc3ccccc3C[C@H]2C(=O)N2CCCCC2)CC1 | 7.85
* O=C1CC2(CCCC2)CC(=O)N1CCN1CCN(c2ccccc2O)CC1 | 8.87
* Oc1nc2cccc(N3CCN(Cc4cccc(-c5cccc(Cl)c5)c4)CC3)c2o1 | 7.38

P = O=C1Cc2ccccc2N1CCCCCN1CCc2ccccc2C1
Q = CC(C)c1ccccc1OCCN1CCC(NC(=O)Nc2ccc(F)cc2)CC1
Task item: For the pair P and Q , which entry has the numerically smaller recorded pKi? # reply format: chosen label
Reply: P
